Attribution: the supplement of paper PMC7125110

Would you kindly list self-cleavage kobs at 2500 uM GlcN6P for each of these variants?
B1: glmS ribozyme (parent)
chain: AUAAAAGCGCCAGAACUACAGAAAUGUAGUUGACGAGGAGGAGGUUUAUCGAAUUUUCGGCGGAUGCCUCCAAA

# Variants of: B1
# Protocol text: self-cleavage kobs at 2500 uM GlcN6P; higher = faster cleavage; RNA array
# Condition notes: with glucosamine-6-phosphate
Fewer inactive variants are shown than the library holds.
Numbers only, in s⁻¹.

>>> value_observed("G37A U65G C67A")
"4.8e-05"
>>> value_observed("A6U C16G")
"2.28e-05"
>>> value_observed("G29C G41A")
"7.06e-05"
>>> value_observed("G40U A42G C70U")
0.00344

Hey, quick one: what's self-cleavage kobs at 2500 uM GlcN6P for each of these?
1. A12G A39C
2. A6G G66A
3. A14G A33G G37A C50G C70G
4. G32U U55G U56G
5. G41C U46A

1: 0.000144; 2: 0.000217; 3: 4.9e-05; 4: 0.000148; 5: 5.8e-05
